Biological target: TBK1 (Homo sapiens)
Construct: TBK1 and IKKε were expressed and purified as full length recombinant proteins
Sequence (Q9UHD2 1-729): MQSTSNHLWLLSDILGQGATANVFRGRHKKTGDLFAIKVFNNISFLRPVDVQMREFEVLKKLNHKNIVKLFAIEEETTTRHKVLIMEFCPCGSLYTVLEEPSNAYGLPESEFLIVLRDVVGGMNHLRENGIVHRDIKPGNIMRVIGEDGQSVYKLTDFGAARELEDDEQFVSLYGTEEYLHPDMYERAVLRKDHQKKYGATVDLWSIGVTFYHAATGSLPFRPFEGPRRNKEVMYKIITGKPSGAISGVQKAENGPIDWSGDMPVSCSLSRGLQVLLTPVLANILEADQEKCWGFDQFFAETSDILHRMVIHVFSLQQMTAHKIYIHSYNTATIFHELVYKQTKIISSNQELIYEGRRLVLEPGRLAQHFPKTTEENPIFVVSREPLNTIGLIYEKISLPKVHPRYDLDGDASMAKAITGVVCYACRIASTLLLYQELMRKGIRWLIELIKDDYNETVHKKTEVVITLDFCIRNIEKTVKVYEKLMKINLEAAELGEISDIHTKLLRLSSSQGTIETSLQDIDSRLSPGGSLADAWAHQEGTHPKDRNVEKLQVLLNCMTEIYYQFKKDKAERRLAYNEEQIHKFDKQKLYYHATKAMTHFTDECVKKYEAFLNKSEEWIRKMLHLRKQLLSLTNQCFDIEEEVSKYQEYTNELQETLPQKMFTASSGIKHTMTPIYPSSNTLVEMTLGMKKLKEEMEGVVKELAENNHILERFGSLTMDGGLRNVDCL
Assay: TR-FRET enzymatic activity assay, TBK1; note: full length recombinant TBK1 at 2.5 nM
Grouping key: IC50. Bins: bin 1 (below 10 nM), bin 2 (10 nM to below 50 nM), bin 3 (50 nM or more)

{"MOLECULE": "N#Cc1cc(-c2ccnc(NC(=O)[C@@H]3C[C@H]3c3ccno3)c2)ccc1OC1CCOCC1 (relative stereo)", "ASSIGNED_CATEGORY": "bin 2"}
{"MOLECULE": "N#Cc1cc(-c2ccnc(NC(=O)C3CC34CC4)c2)ccc1OC1CCOCC1 (stereo not shown)", "ASSIGNED_CATEGORY": "bin 3"}
{"MOLECULE": "N#Cc1cc(-c2ccnc(NC(=O)C3CC3c3ccco3)c2)ccc1OC1CCOCC1 (stereo not shown)", "ASSIGNED_CATEGORY": "bin 3"}
{"MOLECULE": "COc1ccc([C@@H]2C[C@H]2C(=O)Nc2cc(-c3ccc(O[C@H]4CCN(C(=O)CO)CC4(F)F)c(C#N)c3)ncn2)cn1", "ASSIGNED_CATEGORY": "bin 1"}
{"MOLECULE": "Cn1cc([C@H]2C[C@@H]2C(=O)Nc2cc(-c3ccc(O[C@H]4CCN(C(=O)CO)CC4(F)F)c(C#N)c3)ncn2)cn1", "ASSIGNED_CATEGORY": "bin 1"}
{"MOLECULE": "N#Cc1cc(-c2cc(NC(=O)C3CC3)ncn2)ccc1O", "ASSIGNED_CATEGORY": "bin 3"}
{"MOLECULE": "Cn1cc([C@@H]2C[C@H]2C(=O)Nc2cc(-c3ccc(O[C@H]4CCN(C(=O)[C@@H](O)CO)CC4(F)F)c(C#N)c3)ccn2)cn1", "ASSIGNED_CATEGORY": "bin 1"}
{"MOLECULE": "N#Cc1cc(-c2cc(NC(=O)C3CC3)ncn2)ccc1O[C@H]1CCN(C(=O)[C@@H]2CCC(=O)N2)CC1(F)F", "ASSIGNED_CATEGORY": "bin 1"}
{"MOLECULE": "N#CCC(=O)N1CC[C@H](Oc2ccc(-c3ccnc(NC(=O)C4CC4)c3)cc2C#N)[C@H](F)C1", "ASSIGNED_CATEGORY": "bin 2"}
{"MOLECULE": "N#Cc1cc(-c2ccnc(NC(=O)[C@@H]3C[C@H]3C3OCCO3)c2)ccc1OC1CCOCC1 (relative stereo)", "ASSIGNED_CATEGORY": "bin 2"}
{"MOLECULE": "CO[C@@H]1CCN(c2ccc(-c3ccnc(NC(=O)C4CC4)c3)cc2C#N)C1", "ASSIGNED_CATEGORY": "bin 3"}
{"MOLECULE": "N#Cc1cc(-c2ccnc(NC(=O)C3C4CC3C4C(N)=O)c2)ccc1OC1CCOCC1 (stereo not shown)", "ASSIGNED_CATEGORY": "bin 3"}
{"MOLECULE": "N#Cc1cc(-c2ccnc(NC(=O)C3CC3)c2)ccc1N1CCCC1", "ASSIGNED_CATEGORY": "bin 2"}
{"MOLECULE": "N#Cc1cc(-c2ccnc(NC(=O)C3C[C@@H]3F)c2)ccc1O[C@H]1CCN(C(=O)CO)C[C@H]1F (stereo partly shown)", "ASSIGNED_CATEGORY": "bin 2"}
{"MOLECULE": "N#Cc1cc(-c2ccnc(NC(=O)[C@@H]3C[C@@H]3F)c2)ccc1O[C@H]1CCN(C(=O)CO)C[C@H]1F", "ASSIGNED_CATEGORY": "bin 2"}
{"MOLECULE": "N#Cc1cc(-c2ccnc(NC(=O)[C@H]3C[C@@H]3c3cccnc3)c2)ccc1O[C@H]1CCN(C(=O)CO)C[C@H]1F", "ASSIGNED_CATEGORY": "bin 1"}
{"MOLECULE": "N#Cc1cc(-c2cc(NC(=O)C3CC3)ncn2)ccc1O[C@H]1CCN(C(=O)CO)C[C@H]1F", "ASSIGNED_CATEGORY": "bin 2"}
{"MOLECULE": "N#Cc1cc(-c2ccnc(NC(=O)[C@H]3C[C@@H]3C(F)F)c2)ccc1OC1CCOCC1 (relative stereo)", "ASSIGNED_CATEGORY": "bin 3"}
